- TEST TARGET: CCL21 (Homo sapiens)
- Sequence (O00585 24-134): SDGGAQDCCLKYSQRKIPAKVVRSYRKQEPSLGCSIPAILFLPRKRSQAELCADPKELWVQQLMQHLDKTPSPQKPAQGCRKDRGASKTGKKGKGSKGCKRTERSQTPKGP
- EXPERIMENT SUMMARY: 2D 15N-1H HSQC NMR titration of [U-15N] CCL21 with PSGL1 1–15 peptide
- Assay type: binding
pKd: −log10 of the molar value. No end group written: not given here.
MEASURED PARAMETER: pKd

item_sequence="QTAEYEYLDYDFLPE [PSGL1 peptide]" measured_parameter=pKd endpoint_result=3.52
